Assay: NCI Yeast Anticancer Drug Screen. Data for the rad50 strain (AID 155);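 note: 0% = growth of vehicle-only cultures of the same strain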
Details: S. cerevisiae rad50 strain growth inhibition; at 50.0 µM; active compounds read high
Procedure: Growth inhibition of yeast strains with defined genetic alterations is measured as a screen for potential anti-cancer activity. Selected strains with alterations in DNA damage repair or cell cycle control were exposed to compounds and growth inhibition was measured relative to vehicle treated controls. The strain used in this assay is rad50
This is part of a sample that, as a whole, favours compounds with a hit. Of some 79,000 tested, about 15% had one in any assay.
measurement label: growth inhibition (%)
Write the value in % as a bare number.

Some entries whose results are on file:
>>> value("C1=CC2CCC1C1CSCC21 (stereo unspecified)")
-3.15
>>> value("O=C1C(O)=C(c2ccccc2)C12CSC1(CS2)C(=O)C(O)=C1c1ccccc1 (stereo unspecified)")
4.45
>>> value("CCC(=O)CCc1ccc2ccccc2c1")
22.2
>>> value("CCOc1ccnc2c(OC)c(C)c3nc4ccccc4nc3c12")
7.6
>>> value("CCCSS[C@H]1NC(=O)[C@H]1NC(=O)COc1ccccc1")
31.1

Here is the next item to consider.
Lookup result for "CS/C1=C(\c2ccc(C)cc2)N(c2ccccc2)C(=O)C(=O)N(c2ccccc2)/C(c2ccc(C)cc2)=C(/SC)SS1" ; measured growth inhibition: 12.2

* * *

assay: NCI Yeast Anticancer Drug Screen. Data for the mlh1 rad18 strain (AID 175); settings: S. cerevisiae mlh1 rad18 strain growth inhibition; at 50.0 µM; active compounds read high
About 79,000 compounds went through this panel and 15% of them were active in at least one assay; those are over-represented in the sample as a whole.
measurement label: growth inhibition (%)
Write the value in % as a bare number.

Some entries whose results are on file:
>>> value("Cc1ccc(S(=O)(=O)N2CCCCC2)cc1")
-20.5
>>> value("CN(C)c1ccc(S(=O)(=O)c2ccc3nc(N)nc(N)c3c2)cc1")
3.85
>>> value("O=C1c2ccccc2C(=O)N1CNc1ccccc1S")
-8
>>> value("C=CCNC(=S)/N=C/C(C(=O)Nc1ccccc1OC)=C(\\C)O")
-16.3

Lookup result for "COc1ccc(CNc2ccccc2C(=O)O)cc1OC" ; measured growth inhibition: 8.65

Lookup result for O=S=C1SC2CCCCC2S1 (configuration not stated) ; measured growth inhibition: 8.1

Lookup result for "Brc1ccc2c[n+]3ccccc3cc2c1" ; measured growth inhibition: 9.4

* * *

assay: NCI Yeast Anticancer Drug Screen. Data for the mec2-1 strain (AID 157); conditions: S. cerevisiae mec2-1 strain, at 50.0 µM, active compounds read high
The panel holds about 79,000 compounds, 15% with a hit somewhere; the sample as a whole holds those more often.
Each entry below lists one item and its recorded growth inhibition value.
Write the value in % as a bare number.

Lookup result for "C=C1C(=O)O[C@@H]2C3=C(C)C(=O)C=C[C@]3(C)CC[C@@H]12" ; measured growth inhibition: 9.05

Lookup result for O=C(OC1CC2CCC1C2)c1cc([N+](=O)[O-])cc([N+](=O)[O-])c1 (stereo unspecified) ; measured growth inhibition: -1.4

Lookup result for "CC(=O)C1=CN(C)c2ccccc2S1" ; measured growth inhibition: 1.75

Lookup result for "C=C(C)COc1ccc(/C=C/C(=O)OCC)cc1" ; measured growth inhibition: -4

* * *

Each entry below lists one item and its recorded growth inhibition value.
experiment: NCI Yeast Anticancer Drug Screen. Data for the bub3 strain (AID 167); conditions: S. cerevisiae bub3 mutant strain, at 50.0 µM, active compounds read high
This is part of a sample that, as a whole, favours compounds with a hit. Of some 79,000 tested, about 15% had one in any assay.
Write the value in % as a bare number.

>>> value("COc1c([N+](=O)[O-])ccc(C(OC(C)=O)OC(C)=O)c1OC(C)=O")
31.9

Lookup result for "S=c1nn[nH]n1-c1cccc2ccccc12" ; measured growth inhibition: -10.8

Lookup result for "CN(/N=C/C=N/N(C)C1=NCCCN1)C1=NCCCN1" ; measured growth inhibition: 13.2

Lookup result for O=S1CCS(=O)CCS(=O)CC1 (configuration not stated) ; measured growth inhibition: -0.4

Lookup result for "C/C(=N\n1c(-c2ccccc2)nc2ccccc2c1=O)c1ccc(C)cc1" ; measured growth inhibition: 4.95

* * *

experiment: NCI Yeast Anticancer Drug Screen. Data for the sgs1 mgt1 strain (AID 161);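 note: 0% = growth of cultures given vehicle only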; conditions: S. cerevisiae sgs1 mgt1 strain, at 50.0 µM, active compounds read high
The panel holds about 79,000 compounds, 15% with a hit somewhere; the sample as a whole holds those more often.
Each entry below lists one item and its recorded growth inhibition value.
Write the value in % as a bare number.

>>> value("Nc1nc(N)c(N=Nc2ccc(Cl)cc2)c(=O)[nH]1")
-26.1
>>> value("CC(NCCCNC(C)C(=O)O)C(=O)O (stereo unspecified)")
26.8
>>> value("O=C(N/C=C\\NC(=O)Nc1cccc(Cl)c1)Nc1cccc(Cl)c1")
15.8
>>> value("O=C(CCC(=O)Nc1ccc(Cl)c(Cl)c1)CC(=O)c1ccc(F)cc1")
14.4
>>> value("S=C(Nc1ccccc1)Nc1nc(-c2ccccc2)c(N=Nc2ccccc2)s1")
4.05

Lookup result for CC[P+](C)(Cc1ccccc1)c1ccccc1 (stereo unspecified) ; measured growth inhibition: 22.1

Lookup result for O=C(O)C(CSC(c1ccccc1)(c1ccccc1)c1ccccc1)NSc1ccccc1[N+](=O)[O-] (stereo unspecified) ; measured growth inhibition: 97.7

Lookup result for O=S1(=O)NC2CCC3NS(=O)(=O)NC4CCC(N1)N4S(=O)(=O)N23 (stereo unspecified) ; measured growth inhibition: -4.1

Lookup result for "CC(=O)Nc1ccc([N+](=O)[O-])cc1" ; measured growth inhibition: -5.3

Lookup result for "NS(=O)(=O)c1cc2c(cc1Cl)NC(C(=O)NNC(=O)c1ccncc1)=NS2(=O)=O" ; measured growth inhibition: -4.8

Lookup result for COC(=O)CC1(C(=O)OC)OC(=O)c2ccccc2N1C (stereo unspecified) ; measured growth inhibition: 19.9

* * *

test: NCI Yeast Anticancer Drug Screen. Data for the rad50 strain (AID 155);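 note: 0% = growth of vehicle-only cultures of the same strain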; details: S. cerevisiae rad50 strain growth inhibition; at 50.0 µM; active compounds read high
This is part of a sample that, as a whole, favours compounds with a hit. Of some 79,000 tested, about 15% had one in any assay.
measurement label: growth inhibition (%)
Write the value in % as a bare number.

Some entries whose results are on file:
>>> value("COc1ccc(/C=C2\\N=C(c3ccccc3)OC2=O)c(Cl)c1OC")
-9.35
>>> value("CCOC(=O)C(NC(=O)OCc1ccccc1)C(=O)O (configuration not stated)")
-22.9
>>> value("S=c1[nH]ncc(SCc2ccccc2)c1SCc1ccccc1")
2.95
>>> value("N#CCC(=O)NCCc1c[nH]c2ccccc12")
-18.1
>>> value("NC(=O)C(CCN1CCCCC1)c1ccccc1 (configuration not stated)")
27.2
>>> value("Nc1ccccc1/C(O)=C1/CCOC1=O")
0.6
>>> value("O=c1oc2ccc(Cl)cc2c(OCCO)c1Cl")
-5.2
>>> value("Cc1ccc2c(c1)[n+]([O-])c1c3ccccc3[nH]c1[n+]2[O-]")
63.2
>>> value("COC(=O)C1=C(C(=O)OC)C2(C3C(SC)=CC(C)(C)CC3S1)N(Cc1ccccc1)CCN2Cc1ccccc1 (configuration not stated)")
-7.65
>>> value("COc1cc(C=C2C(=O)NC(=O)NC2=O)ccc1OCc1ccccc1")
-0.15

Lookup result for "Cc1cc(C(N)=O)no1" ; measured growth inhibition: 1.5

Lookup result for "O=c1ccc2ccc(O)cc2o1" ; measured growth inhibition: -1.45

* * *

assay: NCI Yeast Anticancer Drug Screen. Data for the rad50 strain (AID 155);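 note: 0% = growth of vehicle-only cultures of the same strain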; settings: S. cerevisiae rad50 strain growth inhibition; at 50.0 µM; active compounds read high
About 79,000 compounds went through this panel and 15% of them were active in at least one assay; those are over-represented in the sample as a whole.
Each entry below lists one item and its recorded growth inhibition value.
Write the value in % as a bare number.

Some entries whose results are on file:
>>> value("Cc1ccc(SSCC(O)C(O)CSSc2ccc(C)cc2)cc1 (stereo unspecified)")
11.6
>>> value("CCOC(=O)C1SC(=Nc2ccc(OC)c(OC)c2)N=C1C (stereo unspecified)")
17.9
>>> value("COc1ccc(C(C)O)cc1 (stereo unspecified)")
23.2
>>> value("COc1ccc2nccc(SCC(=O)O)c2c1")
-5.25
>>> value("O=C(O)c1ncnn1-c1ccccc1")
4.7

Lookup result for NC(=O)C(N)C(N)=NCc1ccccc1 (stereo unspecified) ; measured growth inhibition: 10

Lookup result for "CCCCSC(N)=O" ; measured growth inhibition: -1.5

Lookup result for "CCN(CC)Cc1cc(OC(=O)c2cc(OC)c(OC)c(OC)c2)cc(C(=O)OC)c1" ; measured growth inhibition: 3.2

Lookup result for CCOC(=O)c1c(C)c2c(n1C)CCC(C(=O)OCC)C2=O (stereo unspecified) ; measured growth inhibition: -3.15

Lookup result for "Cc1ccc(N=Nc2c(O)ccc3n[nH]nc23)cc1" ; measured growth inhibition: 2.75

Lookup result for CC(=O)c1cc2c(cc1C(C)C)C(C)(C)C(C)CC2(C)C (stereo unspecified) ; measured growth inhibition: -19.6

Lookup result for "Cc1nc2ccccc2c(=O)n1C(C)(C)CCl" ; measured growth inhibition: 10.1

Lookup result for "ON1c2ccc3ccccc3c2C=CC1(c1ccccc1)c1ccccc1" ; measured growth inhibition: -12.7
